A collection of molecules and their measured ΔSrt, entropic term for loss of ligand rotational and translational degrees of freedom
Biological target: hCK2α (Homo sapiens, UniProt P68400)
Construct: made in house
Sequence (P68400 whole entry): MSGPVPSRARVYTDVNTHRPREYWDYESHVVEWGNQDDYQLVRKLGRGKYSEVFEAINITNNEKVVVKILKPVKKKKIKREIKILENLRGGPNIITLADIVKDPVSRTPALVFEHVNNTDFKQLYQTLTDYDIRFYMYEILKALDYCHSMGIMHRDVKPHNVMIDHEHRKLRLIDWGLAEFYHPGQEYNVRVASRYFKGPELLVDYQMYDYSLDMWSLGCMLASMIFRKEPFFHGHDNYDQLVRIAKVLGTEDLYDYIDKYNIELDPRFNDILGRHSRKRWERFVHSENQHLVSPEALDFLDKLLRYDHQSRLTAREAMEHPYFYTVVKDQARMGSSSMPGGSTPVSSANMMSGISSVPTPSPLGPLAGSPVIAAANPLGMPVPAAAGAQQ
Test: Isothermal titration calorimetry (MicroCal iTC200), reverse titration
Format: binding
Details: calculated from ligand molecular mass
EXPERIMENTAL ENDPOINT: ΔSrt, entropic term for loss of ligand rotational and translational degrees of freedom

> print(dat)
              line.notation                          assay.target            result
1        Brc1ccc2n[nH]nc2c1  hCK2α (Homo sapiens, UniProt P68400)  -277 J∙mol-1∙K-1
2      Brc1ccc2[nH]nnc2c1Br  hCK2α (Homo sapiens, UniProt P68400)  -291 J∙mol-1∙K-1
3    Brc1cc(Br)c2n[nH]nc2c1  hCK2α (Homo sapiens, UniProt P68400)  -291 J∙mol-1∙K-1
4  Brc1cc2[nH]nnc2c(Br)c1Br  hCK2α (Homo sapiens, UniProt P68400)  -301 J∙mol-1∙K-1
5  Brc1cc(Br)c2[nH]nnc2c1Br  hCK2α (Homo sapiens, UniProt P68400)  -301 J∙mol-1∙K-1
6      Brc1cc2nn[nH]c2cc1Br  hCK2α (Homo sapiens, UniProt P68400)  -291 J∙mol-1∙K-1

Provenance of the data: paper PMC8041304
